- measured.target: rat maltase (partially purified alpha-glucosidase from intestinal rat powder)
- procedure.summary: Intestinal alpha-glucosidase assay, maltose substrate (Glucose GO Kit)
- Assay type: biochemical
pIC50: −log10 of the molar value.
Note to self: values exactly at 7 are Satisfied. So pIC50 at or above 7 is Satisfied, below is Not satisfied.

• COc1cc(NCCCCCCN2C[C@H](O)[C@@H](O)[C@H](O)[C@H]2CO)cc(-c2ncco2)c1 = Satisfied
• O=S(=O)(Nc1cc(-c2ncccn2)ccc1NCCCCCCN1C[C@H](O)[C@@H](O)[C@H](O)[C@H]1CO)C1CC1 = Satisfied
• OC[C@@H]1[C@@H](O)[C@H](O)[C@@H](O)CN1CCCCCCNc1cc(Cl)cc(-c2ncco2)c1 = Satisfied
• CS(=O)(=O)c1cc(NCc2cccc(CN3C[C@H](O)[C@@H](O)[C@H](O)[C@H]3CO)c2)cc(-c2cccnn2)c1 = Satisfied
• [N-]=[N+]=Nc1ccc(NCc2ccc(-c3ccc(CN4C[C@H](O)[C@@H](O)[C@H](O)[C@H]4CO)cc3)cc2)c([N+](=O)[O-])c1 = Satisfied
• OC[C@@H]1[C@@H](O)[C@H](O)[C@@H](O)CN1CCCCCCNc1ccc(-c2cccnn2)cc1Cl = Satisfied
• COc1cc(NCCc2ccc(CCN3C[C@H](O)[C@@H](O)[C@H](O)[C@H]3CO)cc2)cc(C2=CCOCC2)c1 = Not satisfied
• COc1cc(NCCCCCCN2C[C@H](O)[C@@H](O)[C@H](O)[C@H]2CO)cc(C2=CCCCC2)c1 = Satisfied
• Cc1cc(-c2ncccn2)ccc1NCCCCCCN1C[C@H](O)[C@@H](O)[C@H](O)[C@H]1CO = Satisfied
• Cc1cc(NCc2cccc(CN3C[C@H](O)[C@@H](O)[C@H](O)[C@H]3CO)n2)cc(-c2ncccn2)c1 = Not satisfied
• CN(Cc1cccc(CN2C[C@H](O)[C@@H](O)[C@H](O)[C@H]2CO)c1)c1ccc(CN2CCCO2)cc1[N+](=O)[O-] = Satisfied
• [N-]=[N+]=Nc1ccc(NCCN2CC(OCCN3C[C@H](O)[C@@H](O)[C@H](O)[C@H]3CO)C2)c([N+](=O)[O-])c1 = Satisfied
• CC(C)c1cc(CCNc2ccc(N=[N+]=[N-])cc2[N+](=O)[O-])cc(CCN2C[C@H](O)[C@@H](O)[C@H](O)[C@H]2CO)c1 = Not satisfied
• [N-]=[N+]=Nc1ccc(NCCc2cnn(CCN3C[C@H](O)[C@@H](O)[C@H](O)[C@H]3CO)c2)c([N+](=O)[O-])c1 = Not satisfied
• CN(C)C(=O)c1cc(NCCCCCCN2C[C@H](O)[C@@H](O)[C@H](O)[C@H]2CO)cc(-c2ncccn2)c1 = Satisfied
• COc1cc(CC2CCOC2)cc(NCCCCCCN2C[C@H](O)[C@@H](O)[C@H](O)[C@H]2CO)c1 (some centres unmarked) = Satisfied
• O=[N+]([O-])c1cc(-c2ccccc2)ccc1NCCCCCCN1C[C@H](O)[C@@H](O)[C@H](O)[C@H]1CO = Satisfied
• N#Cc1cc(Br)cc(NCc2ccc(CN3C[C@H](O)[C@@H](O)[C@H](O)[C@H]3CO)cc2)c1 = Satisfied
• N#Cc1cc(NCc2ccc(CN3C[C@H](O)[C@@H](O)[C@H](O)[C@H]3CO)cc2)cc(N2CCOCC2)c1 = Satisfied
• Cc1cc(NCc2cccc(CN3C[C@H](O)[C@@H](O)[C@H](O)[C@H]3CO)c2)cc(-c2ccc[nH]2)c1 = Satisfied
• [N-]=[N+]=Nc1ccc(N2CCN(CCN3C[C@H](O)[C@@H](O)[C@H](O)[C@H]3CO)CC2)c([N+](=O)[O-])c1 = Not satisfied
• Cc1cc(NCc2ccc(CN3C[C@H](O)[C@@H](O)[C@H](O)[C@H]3CO)cc2)cc(C2=COCCO2)c1 = Satisfied
• OC[C@@H]1[C@@H](O)[C@H](O)[C@@H](O)CN1Cc1ccc(CNc2ccc(-c3ncccn3)cc2)cc1 = Satisfied
• OC[C@@H]1[C@@H](O)[C@H](O)[C@@H](O)CN1CCCCCCNc1cc(Cl)cc(-c2cnccn2)c1 = Satisfied

====

- measured.target: rat maltase (partially purified alpha-glucosidase from intestinal rat powder)
- procedure.summary: Intestinal alpha-glucosidase assay, maltose substrate (Glucose GO Kit)
- Method: Intestinal alpha-glucosidases (rat maltase and sucrase): Intestinal alpha-glucosidases act upon 1,4-alpha-glucoside bonds, breaking down disaccharides to glucose. […] The reaction was stopped by a 5-minute incubation at 90° C. and the resultant glucose production is detected using Sigma's Glucose GO Kit. […] The IC50 was determined using a 4-PL curve fit and serves as the measure of relative inhibition of each test compound (see Table 3).
# IC50 values compiled below
property.measured: IC50

- [N-]=[N+]=Nc1ccc(NCCN(CCC(N)=O)CCN2C[C@H](O)[C@@H](O)[C@H](O)[C@H]2CO)c([N+](=O)[O-])c1: 7160 nM
- OC[C@@H]1[C@@H](O)[C@H](O)[C@@H](O)CN1Cc1ccc(CNc2cc(-c3ncccn3)cc(C3CC3)c2)cc1: 5 nM
- OC[C@@H]1[C@@H](O)[C@H](O)[C@@H](O)CN1Cc1cccc(CNc2ccc(C3=COCCO3)cc2)c1: 41 nM
- N#Cc1ccc(F)cc1NCCCCCCN1C[C@H](O)[C@@H](O)[C@H](O)[C@H]1CO: 4 nM

====

- measured.target: rat sucrase (partially purified alpha-glucosidase from intestinal rat powder) (Rattus norvegicus, UniProt P23739)
- Sequence (P23739 whole entry): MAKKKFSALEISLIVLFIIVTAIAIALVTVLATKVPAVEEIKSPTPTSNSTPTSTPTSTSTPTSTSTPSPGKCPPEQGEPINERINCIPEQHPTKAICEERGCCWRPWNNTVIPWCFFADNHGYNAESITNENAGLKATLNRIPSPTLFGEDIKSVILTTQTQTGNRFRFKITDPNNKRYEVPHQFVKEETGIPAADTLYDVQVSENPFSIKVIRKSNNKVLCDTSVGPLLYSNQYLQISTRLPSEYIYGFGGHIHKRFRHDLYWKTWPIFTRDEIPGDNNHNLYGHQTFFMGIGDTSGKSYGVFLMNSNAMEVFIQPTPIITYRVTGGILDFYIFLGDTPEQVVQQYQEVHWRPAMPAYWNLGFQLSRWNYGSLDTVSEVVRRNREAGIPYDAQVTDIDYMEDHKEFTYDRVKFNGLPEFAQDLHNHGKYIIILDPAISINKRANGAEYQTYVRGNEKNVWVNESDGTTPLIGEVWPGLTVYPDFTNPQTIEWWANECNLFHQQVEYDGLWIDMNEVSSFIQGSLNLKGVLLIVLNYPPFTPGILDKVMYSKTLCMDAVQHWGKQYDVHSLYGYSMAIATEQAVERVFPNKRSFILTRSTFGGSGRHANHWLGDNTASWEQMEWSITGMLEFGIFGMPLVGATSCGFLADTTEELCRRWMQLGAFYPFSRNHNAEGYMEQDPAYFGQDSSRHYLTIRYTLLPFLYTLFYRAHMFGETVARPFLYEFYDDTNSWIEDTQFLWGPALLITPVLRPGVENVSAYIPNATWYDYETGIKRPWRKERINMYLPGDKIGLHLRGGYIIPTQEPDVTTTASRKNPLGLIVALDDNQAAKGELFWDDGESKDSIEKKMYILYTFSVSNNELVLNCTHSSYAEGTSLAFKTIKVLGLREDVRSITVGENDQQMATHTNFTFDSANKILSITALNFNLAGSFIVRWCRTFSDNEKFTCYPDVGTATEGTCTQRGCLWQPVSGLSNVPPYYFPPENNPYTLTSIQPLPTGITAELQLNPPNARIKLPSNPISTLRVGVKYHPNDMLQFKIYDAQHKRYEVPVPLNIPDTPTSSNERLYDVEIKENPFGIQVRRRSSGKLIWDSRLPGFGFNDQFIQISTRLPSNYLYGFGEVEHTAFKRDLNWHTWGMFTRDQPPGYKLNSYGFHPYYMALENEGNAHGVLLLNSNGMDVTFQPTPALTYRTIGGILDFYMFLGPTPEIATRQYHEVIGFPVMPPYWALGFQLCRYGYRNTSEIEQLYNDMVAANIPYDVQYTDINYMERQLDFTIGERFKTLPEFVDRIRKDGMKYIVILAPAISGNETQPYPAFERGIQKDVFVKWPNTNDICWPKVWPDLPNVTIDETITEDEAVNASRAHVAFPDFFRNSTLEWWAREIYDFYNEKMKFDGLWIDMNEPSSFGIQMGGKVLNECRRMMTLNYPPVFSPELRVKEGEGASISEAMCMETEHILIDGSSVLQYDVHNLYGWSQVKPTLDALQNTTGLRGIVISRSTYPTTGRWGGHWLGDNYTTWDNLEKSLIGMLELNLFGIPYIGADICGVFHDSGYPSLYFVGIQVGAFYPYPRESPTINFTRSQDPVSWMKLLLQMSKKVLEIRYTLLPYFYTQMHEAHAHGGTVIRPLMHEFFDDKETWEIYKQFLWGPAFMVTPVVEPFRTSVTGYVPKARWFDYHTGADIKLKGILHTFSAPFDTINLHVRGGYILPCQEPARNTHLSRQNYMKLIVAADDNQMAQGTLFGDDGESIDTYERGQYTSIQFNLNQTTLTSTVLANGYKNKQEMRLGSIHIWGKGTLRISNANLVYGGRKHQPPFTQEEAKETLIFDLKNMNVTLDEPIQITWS
pIC50: −log10 of the molar value.
property.measured: pIC50

• OC[C@@H]1[C@@H](O)[C@H](O)[C@@H](O)CN1CCCCCCNc1ccc(-c2ncco2)cc1Cl = 7.96
• COc1cc(NCCc2ccc(CCN3C[C@H](O)[C@@H](O)[C@H](O)[C@H]3CO)cc2)cc(C2=CCOCC2)c1 = 5.54
• OC[C@@H]1[C@@H](O)[C@H](O)[C@@H](O)CN1Cc1ccc(CNc2cc(-c3cccnn3)cc(C3CC3)c2)cc1 = 7.48
• [N-]=[N+]=Nc1ccc(NCC/C=C/CCN2C[C@H](O)[C@@H](O)[C@H](O)[C@H]2CO)c([N+](=O)[O-])c1 = 7.54
• OC[C@@H]1[C@@H](O)[C@H](O)[C@@H](O)CN1Cc1cccc(CNc2ccc(Br)cc2)c1 = 7.64
• OC[C@@H]1[C@@H](O)[C@H](O)[C@@H](O)CN1CCCCCCCCC1CNCCO1 (stereo partly shown) = 6.00
• CC(C)c1cc(CCNc2ccc(N=[N+]=[N-])cc2[N+](=O)[O-])cc(CCN2C[C@H](O)[C@@H](O)[C@H](O)[C@H]2CO)c1 = 5.09
• [N-]=[N+]=Nc1ccc(NCCn2cc(CCN3C[C@H](O)[C@@H](O)[C@H](O)[C@H]3CO)nn2)c([N+](=O)[O-])c1 = 5.73
• OC[C@@H]1[C@@H](O)[C@H](O)[C@@H](O)CN1CCCCCCNc1cc(Cl)cc(-c2ncco2)c1 = 7.14
• O=[N+]([O-])c1cc(-c2ccc[nH]2)ccc1NCc1ccc(CN2C[C@H](O)[C@@H](O)[C@H](O)[C@H]2CO)cc1 = 8.70
• Cc1cc(NCc2ccc(CN3C[C@H](O)[C@@H](O)[C@H](O)[C@H]3CO)cc2)cc(-c2ncccn2)c1 = 7.64
• COc1cc(NCCc2ccc(CCN3C[C@H](O)[C@@H](O)[C@H](O)[C@H]3CO)cc2)cc(-c2noc(C3CCC3)n2)c1 = 6.30

====

- measured.target: recombinant alpha-glucosidase II (murine full-length glucosidase II, alpha and beta subunits, Glu 2) (Mus musculus, UniProt Q8BHN3)
- Construct: made in house; host or cells: HEK-293T cells transduced with BacMam viruses (75% alpha, 25% beta); protein harvested from culture supernatant
- Sequence (O08795 15-521): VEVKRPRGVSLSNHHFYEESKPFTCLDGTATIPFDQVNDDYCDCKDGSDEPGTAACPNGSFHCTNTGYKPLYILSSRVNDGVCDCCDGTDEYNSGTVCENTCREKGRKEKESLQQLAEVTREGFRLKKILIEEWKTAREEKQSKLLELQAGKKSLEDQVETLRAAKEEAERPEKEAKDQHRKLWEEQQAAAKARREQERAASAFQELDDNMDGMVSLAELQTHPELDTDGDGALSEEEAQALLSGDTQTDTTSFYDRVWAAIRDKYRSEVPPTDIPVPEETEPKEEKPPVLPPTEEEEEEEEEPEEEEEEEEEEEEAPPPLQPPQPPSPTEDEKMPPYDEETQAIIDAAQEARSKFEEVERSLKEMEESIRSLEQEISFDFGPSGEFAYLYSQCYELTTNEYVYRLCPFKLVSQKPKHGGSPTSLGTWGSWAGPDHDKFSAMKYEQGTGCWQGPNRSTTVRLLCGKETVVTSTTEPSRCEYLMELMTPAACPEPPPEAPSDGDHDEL
- Sequence (Q8BHN3 33-944): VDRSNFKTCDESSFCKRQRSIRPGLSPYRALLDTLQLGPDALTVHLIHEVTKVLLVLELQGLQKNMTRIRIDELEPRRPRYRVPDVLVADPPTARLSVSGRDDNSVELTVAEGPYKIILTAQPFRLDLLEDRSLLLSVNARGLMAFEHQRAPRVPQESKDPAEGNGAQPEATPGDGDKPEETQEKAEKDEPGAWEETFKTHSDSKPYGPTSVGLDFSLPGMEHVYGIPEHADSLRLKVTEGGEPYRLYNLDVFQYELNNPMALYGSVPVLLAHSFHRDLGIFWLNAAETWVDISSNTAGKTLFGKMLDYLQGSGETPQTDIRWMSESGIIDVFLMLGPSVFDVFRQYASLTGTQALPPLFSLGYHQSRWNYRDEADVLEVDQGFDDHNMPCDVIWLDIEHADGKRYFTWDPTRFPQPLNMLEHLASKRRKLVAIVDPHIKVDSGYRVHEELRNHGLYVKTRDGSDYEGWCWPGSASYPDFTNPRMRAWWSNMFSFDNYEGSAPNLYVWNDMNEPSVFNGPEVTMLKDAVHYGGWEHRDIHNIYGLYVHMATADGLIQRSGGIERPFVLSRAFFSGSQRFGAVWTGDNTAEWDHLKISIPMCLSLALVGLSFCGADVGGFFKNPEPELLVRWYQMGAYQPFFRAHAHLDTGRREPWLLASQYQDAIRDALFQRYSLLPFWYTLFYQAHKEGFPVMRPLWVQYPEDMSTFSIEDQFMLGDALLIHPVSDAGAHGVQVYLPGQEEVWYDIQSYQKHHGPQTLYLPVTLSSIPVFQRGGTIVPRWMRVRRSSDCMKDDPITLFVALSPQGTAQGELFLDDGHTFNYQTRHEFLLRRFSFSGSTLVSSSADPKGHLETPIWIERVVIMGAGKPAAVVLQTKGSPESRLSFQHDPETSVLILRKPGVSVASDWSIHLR
- procedure.summary: Alpha-glucosidase II assay (4-methylumbelliferyl-alpha-D-pyranoside substrate, fluorescence)
- Type: biochemical
- condition.description: Glucosidase 2; read-out: Glu2 IC50
As shown below, each of these compounds has a reported IC50 value.
property.measured: IC50 (µM)

- COc1cc(NCCc2ccc(CCN3C[C@H](O)[C@@H](O)[C@H](O)[C@H]3CO)cc2)cc(-c2ncccn2)c1: 0.118
- Cc1cc(NCc2ccc(CN3C[C@H](O)[C@@H](O)[C@H](O)[C@H]3CO)cc2)cc(-n2nccn2)c1: 0.194
- COc1cc(-c2ncccn2)ccc1NCCCCCCN1C[C@H](O)[C@@H](O)[C@H](O)[C@H]1CO: 0.03
- CN(C)Cc1ccc(NCCCCCCN2C[C@H](O)[C@@H](O)[C@H](O)[C@H]2CO)c(C(F)(F)F)c1: 0.072

====

- measured.target: UniProt:P23739
property.measured: IC50 (nM)

- OC[C@@H]1[C@@H](O)[C@H](O)[C@@H](O)CN1CCCCCCNc1cc(Cl)cc(CN2CCCO2)c1 [Compound 1183]: 94
- OC[C@@H]1[C@@H](O)[C@H](O)[C@@H](O)CN1CCCCCCNc1cc(-c2ncccn2)cc(C2CC2)c1 [Compound 1009]: 71
- CS(=O)(=O)c1cc(NCc2cccc(CN3C[C@H](O)[C@@H](O)[C@H](O)[C@H]3CO)c2)cc(-c2cccnn2)c1 [Compound 1040]: 126
- OC[C@@H]1[C@@H](O)[C@H](O)[C@@H](O)CN1CCc1ccc(CCNc2cc(Cl)cc(-c3ncccn3)c2)cc1 [Compound 1162]: 476
